# STUDY TARGET: human TLR8 (Homo sapiens, UniProt Q9NR97)
# Sequence (Q9NR97 27-1041): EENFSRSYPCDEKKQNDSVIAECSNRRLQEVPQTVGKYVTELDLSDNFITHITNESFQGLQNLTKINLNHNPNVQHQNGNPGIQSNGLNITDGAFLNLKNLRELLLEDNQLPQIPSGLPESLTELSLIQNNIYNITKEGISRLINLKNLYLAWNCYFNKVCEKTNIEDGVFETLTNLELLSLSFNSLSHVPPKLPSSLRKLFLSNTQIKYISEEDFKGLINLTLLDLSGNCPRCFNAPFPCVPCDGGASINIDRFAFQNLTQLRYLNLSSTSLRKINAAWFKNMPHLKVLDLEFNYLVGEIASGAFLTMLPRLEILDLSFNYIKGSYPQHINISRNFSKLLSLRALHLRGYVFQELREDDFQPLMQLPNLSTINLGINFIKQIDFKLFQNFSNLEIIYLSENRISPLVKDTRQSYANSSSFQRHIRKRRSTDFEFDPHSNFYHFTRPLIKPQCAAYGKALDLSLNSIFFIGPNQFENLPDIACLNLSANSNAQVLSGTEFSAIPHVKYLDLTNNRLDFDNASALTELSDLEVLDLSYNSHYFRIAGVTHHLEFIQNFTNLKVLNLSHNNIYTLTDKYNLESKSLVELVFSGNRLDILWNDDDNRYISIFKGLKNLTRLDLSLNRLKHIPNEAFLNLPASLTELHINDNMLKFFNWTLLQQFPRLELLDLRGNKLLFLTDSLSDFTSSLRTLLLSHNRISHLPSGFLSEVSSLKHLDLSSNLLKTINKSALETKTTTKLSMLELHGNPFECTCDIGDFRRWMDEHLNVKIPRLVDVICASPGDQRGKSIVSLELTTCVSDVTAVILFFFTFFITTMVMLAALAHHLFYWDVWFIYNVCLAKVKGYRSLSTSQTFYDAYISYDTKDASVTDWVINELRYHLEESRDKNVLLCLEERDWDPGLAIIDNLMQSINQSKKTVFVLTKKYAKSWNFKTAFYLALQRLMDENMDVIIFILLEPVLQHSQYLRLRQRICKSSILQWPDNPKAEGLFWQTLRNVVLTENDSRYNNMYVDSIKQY
# ASSAY NOTES: HEK293 NFKB reporter assay, human TLR8
# CONDITION INFO: HEK293 NFKB reporter cells expressing human TLR8; read-out: HEK293 hTLR8 EC50
OBSERVED PROPERTY: pEC50
Remember, pEC50 is on a log scale: it is -log10 of the molar concentration.

Here are 10 compounds together with their reported answers.
> print(dat)
                                    compound                              study.target  observed.measurement
 1  CCCN(OCC)C(=O)C1=Cc2sc(CC3CN(C(=O)OC(C)(C)C)C3)cc2N=C(N)C1 [TAZ-184]  human TLR8 (Homo sapiens, UniProt Q9NR97)                  6.03
 2  CCCN(OCC)C(=O)C1=Cc2sc(CN3CCNCC3)cc2N=C(N)C1 [TAZ-94]  human TLR8 (Homo sapiens, UniProt Q9NR97)                  7.00
 3  CCCN(Cc1ccc(CNC(C)=O)cc1)C(=O)C1=Cc2sccc2N=C(N)C1 [TAZ-45]  human TLR8 (Homo sapiens, UniProt Q9NR97)                  5.75
 4  CCCN(OCC)C(=O)C1=Cc2sc(CN3CCC4(CCNC4)CC3)cc2N=C(N)C1 [TAZ-240]  human TLR8 (Homo sapiens, UniProt Q9NR97)                  5.26
 5  CCCN(OCC)C(=O)C1=Cc2sc(CCC3CCN(C(=O)OC(C)(C)C)CC3)cc2N=C(N)C1 [TAZ-175]  human TLR8 (Homo sapiens, UniProt Q9NR97)                  6.32
 6  CCCN(OCC)C(=O)C1=Cc2sc(CN3CC4(C3)CN(c3ccc(C)cc3)C4)cc2N=C(N)C1 [TAZ-219]  human TLR8 (Homo sapiens, UniProt Q9NR97)                  6.07
 7  CCCN(OCCNC(=O)CC(C)(C)C)C(=O)C1=Cc2sc(CCCCCNC(=O)OC(C)(C)C)cc2N=C(N)C1 [TAZ-150]  human TLR8 (Homo sapiens, UniProt Q9NR97)                  5.78
 8  CCCN(CCC)C(=O)C1=Cc2sc(COCCN)cc2N=C(N)C1 [TAZ-81]  human TLR8 (Homo sapiens, UniProt Q9NR97)                  5.10
 9  CCCN(OC(C)C)C(=O)C1=Cc2sc(CC3CN(C(=O)OC(C)(C)C)C3)cc2N=C(N)C1 [TAZ-249]  human TLR8 (Homo sapiens, UniProt Q9NR97)                  6.19
10  CCCN(Cc1ccc(CN2CCN(C(=O)OC(C)(C)C)CC2)cc1)C(=O)C1=Cc2sccc2N=C(N)C1 [TAZ-34]  human TLR8 (Homo sapiens, UniProt Q9NR97)                  6.47

Which pEC50 value is on record for CCCN(CCC)C(=O)C1=Cc2sc(CCCCCN)cc2N=C(N)C1 [TAZ-14] ?
5.31

Which pEC50 value is on record for CCCN(CC1CC1)C(=O)C1=Cc2sc(CCCCCN)cc2N=C(N)C1 [TAZ-124] ?
5.71

Which pEC50 value is on record for CCCN(Cc1ccc(CN)cc1C(F)(F)F)C(=O)C1=Cc2sccc2N=C(N)C1 [TAZ-52] ?
6.82
